Source: patent US10252997B2

Molecular target: Human ACC1 (Homo sapiens, UniProt Q13085)
Construct: His6 (from vector pFAST-BacHTc; purified on Ni-NTA) (N); made in house; host or cells: SF-9 insect cells, recombinant baculovirus BAC-ACC1
Assay: Measurement of ACC1 inhibitory activity (Malonyl-CoA produced, RapidFire-mass spectrometry)
Type: biochemical
Settings: 10 μM of the test compound; read-out: ACC1 inhibitory rate (%) at 10 μM
Experimental Readout: inhibition at 10 µM (%)

| Molecule | Unit Name | inhibition at 10 µM |
| --- | --- | --- |
| CC(=O)NC(C)CC(=O)c1cnn(-c2ccc(Oc3cccc(OCC4CC4)c3)nc2)c1 (stereo not shown) | % | 98 |
| CC(=O)N[C@@H](C)COc1cnc(-c2ccc(Oc3cccc(OCC4CC4)c3)cn2)o1 | % | 100 |
| CC(=O)NC(C)CCc1ccn(-c2ccc(Oc3cccc(OCC4CC4)c3)cc2)n1 (stereo not shown) | % | 96 |
| CC(=O)NC(C)c1cnc(OCc2c(F)cc(Oc3cccc(OCC4CC4)c3)cc2F)c(F)c1 (stereo not shown) | % | 98 |

###

Biological target: Human ACC1 (Homo sapiens)
Construct: His6 (from vector pFAST-BacHTc; purified on Ni-NTA) (N); made in house; host or cells: SF-9 insect cells, recombinant baculovirus BAC-ACC1
Experiment: Measurement of ACC1 inhibitory activity (Malonyl-CoA produced, RapidFire-mass spectrometry)
Format: biochemical
Settings: 10 μM of the test compound; read-out: ACC1 inhibitory rate (%) at 10 μM
Experimental Readout: inhibition at 10 µM (%)

| Compound | Endpoint Value |
| --- | --- |
| CC(=O)N[C@@H](C)COc1cnc(-c2ccc(Oc3cccc(OCC4CC4)c3)cc2)o1 [Example 30] | 99 |
| C[C@@H](COc1cnc(-c2ccc(Oc3cccc(OCC4CC4)c3)cc2)o1)NC(N)=O [Example 82] | 96 |
| CC(=O)NC(C)CCc1coc(-c2ccc(Oc3cccc(OCC4CC4)c3)cc2)n1 (centres unmarked) [Example 83] | 97 |
| C[C@@H](COc1cnc(-c2ccc(Oc3cccc(OCC4CC4)c3)nc2)o1)NC(N)=O [Example 101] | 98 |
| CC(=O)NC(C)c1cnc(OCc2ccc(Oc3cccc(OCC4CC4)c3)cc2F)cn1 (centres unmarked) [Example 35] | 78 |
| CC(=O)NC(C)CC(=O)c1cnc(-c2ccc(Oc3cccc(OCC4CC4)c3)nc2)o1 (centres unmarked) [Example 105] | 100 |
| CC(=O)NC(C)c1ccc(OCc2c(F)cc(Oc3cccc(OCC4CC4)c3)cc2F)nc1 (centres unmarked) [Example 68] | 96 |
| CC(=O)N[C@@H](C)COc1cnc(-c2cnc(Oc3cccc(OCC4CC4)c3)cc2C)o1 [Example 106] | 98 |
